Biological target: human HER2 receptor overexpressed on T6-17 cells (NIH3T3-derived) (human, UniProt P04626 23-1255)
Experiment: cell-based or functional assay
Positions of bridges follow the written chain, without caps; N, C: chain ends. No end group written: not given here.
quantity: % inhibition (inhibition of T6-17 cell proliferation in MTT assays, 1 µg/mL peptide) (%)
Give your result in % as a bare value.

FCGDGFYACYMDV-OH (disulfide 2-9 (inferred), First AHNP analogue designed; has one more turn Gly than peptide 2; also called peptide 8) [AHNP analogue 8, FCGDGFYACYMDV-OH] : 18.4

Supply measured % inhibition (inhibition of T6-17 cell proliferation in MTT assays, 1 µg/mL peptide) of YCDGFYACYMDV-NH2 (disulfide 2-8 (inferred), N-terminal Phe of AHNP replaced with Tyr; also called peptide 3) [AHNP analogue 3, YCDGFYACYMDV-NH2] in your reply.
59.6

Give a short answer stating reported % inhibition (inhibition of T6-17 cell proliferation in MTT assays, 1 µg/mL peptide) for FCDGFYACYMDV-NH2 (disulfide 2-8, Designed from the CDR-H3 loop of rhumAb 4D5; also called anti-HER2 peptide) [AHNP (anti-HER2/neu peptide mimetic), peptide 1, FCDGFYACYMDV-NH2] .
35.5

Retrieve % inhibition (inhibition of T6-17 cell proliferation in MTT assays, 1 µg/mL peptide) measured for FCDGFYACYMDV-OH (disulfide 2-8 (inferred), also called peptide 2) [AHNP analogue 2, FCDGFYACYMDV-OH (cyclic)] and print it.
22.3

Respond only with % inhibition (inhibition of T6-17 cell proliferation in MTT assays, 1 µg/mL peptide) recorded for FCDGFYACYMDV-OH (cysteine pairing not given here, also called peptide 9; linear analogue 9) [AHNP analogue 9, FCDGFYACYMDV-OH (linear, not cyclized)]
12.8

Dear colleague, please send me the reported % inhibition (inhibition of T6-17 cell proliferation in MTT assays, 1 µg/mL peptide) for FCDGFYACYKDV-OH (disulfide 2-8 (inferred), Met of peptide 2 replaced by Lys; also called peptide 6) [AHNP analogue 6, FCDGFYACYKDV-OH] when you can.
8.4
